// data source = patent US20230134571A1

Biological target: HIV Env, isolate X1254_C3 (HIV)
Assay: cell-based or functional assay
measurement-kind: IC80 (µg/ml) with constrains (µg/mL)
A number alone suffices; assume µg/mL.

These recorded examples may help you get a feel for the data.
binder: ePGDM9 (antibody, V domains shown) VH: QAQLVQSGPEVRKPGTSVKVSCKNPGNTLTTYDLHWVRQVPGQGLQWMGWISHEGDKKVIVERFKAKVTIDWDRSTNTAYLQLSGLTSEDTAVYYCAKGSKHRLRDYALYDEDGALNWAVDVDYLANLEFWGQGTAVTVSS VL: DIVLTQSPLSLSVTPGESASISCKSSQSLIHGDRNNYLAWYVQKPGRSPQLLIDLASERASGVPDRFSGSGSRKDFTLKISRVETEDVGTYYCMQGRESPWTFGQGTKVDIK
IC80 (µg/ml) with constrains (µg/mL): 0.71
//
binder: ePGDM13 (antibody, V domains shown) VH: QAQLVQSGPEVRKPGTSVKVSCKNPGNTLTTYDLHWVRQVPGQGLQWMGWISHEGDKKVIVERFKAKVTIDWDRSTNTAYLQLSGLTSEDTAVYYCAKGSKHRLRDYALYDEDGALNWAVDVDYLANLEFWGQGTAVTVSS VL: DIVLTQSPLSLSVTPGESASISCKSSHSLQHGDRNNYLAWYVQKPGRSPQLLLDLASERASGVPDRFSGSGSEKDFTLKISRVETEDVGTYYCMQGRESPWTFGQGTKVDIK
IC80 (µg/ml) with constrains (µg/mL): 2.07

--- query ---
State, in one line, measured IC80 (µg/ml) with constrains of ePGDM5 (antibody, V domains shown) VH: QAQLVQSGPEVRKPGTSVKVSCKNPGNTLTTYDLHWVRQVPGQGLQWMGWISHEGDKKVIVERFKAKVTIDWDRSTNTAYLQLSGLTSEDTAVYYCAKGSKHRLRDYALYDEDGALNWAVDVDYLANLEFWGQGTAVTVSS VL: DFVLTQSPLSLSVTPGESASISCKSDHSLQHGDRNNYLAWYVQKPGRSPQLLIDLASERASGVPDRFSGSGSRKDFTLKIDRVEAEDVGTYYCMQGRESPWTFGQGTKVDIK
0.869
